- test-target: Tyrosine-protein phosphatase non-receptor type 1 (Homo sapiens) (UniProt P18031)
- Sequence (whole entry): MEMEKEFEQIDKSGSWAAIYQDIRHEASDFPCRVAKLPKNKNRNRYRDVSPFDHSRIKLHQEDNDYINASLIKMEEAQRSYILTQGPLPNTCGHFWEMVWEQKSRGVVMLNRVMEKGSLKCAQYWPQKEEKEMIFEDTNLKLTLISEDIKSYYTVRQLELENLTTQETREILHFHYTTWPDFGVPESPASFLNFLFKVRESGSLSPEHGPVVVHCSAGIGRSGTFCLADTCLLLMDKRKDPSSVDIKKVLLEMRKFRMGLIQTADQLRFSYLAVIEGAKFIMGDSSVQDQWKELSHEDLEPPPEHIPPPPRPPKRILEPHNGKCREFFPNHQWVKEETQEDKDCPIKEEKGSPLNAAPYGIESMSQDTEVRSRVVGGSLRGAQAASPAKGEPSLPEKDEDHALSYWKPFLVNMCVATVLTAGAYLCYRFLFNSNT
- test-description: Percent inhibition against Protein-tyrosine phosphatase 1B at a 1 uM concentration
readout-type: inhibition (%)

>  <smiles-str>
CCCCCNC(=O)[C@H](Cc1ccc(OCC(=O)O)c(C(=O)O)c1)NC(=O)[C@H](Cc1ccccc1)NC(=O)OC(C)(C)C

>  <measured-value>
30

$$$$
>  <smiles-str>
CCCCCNC(=O)[C@H](Cc1ccc(OCC(=O)O)c(CCC(=O)O)c1)NC(=O)[C@H](Cc1ccccc1)NC(=O)OC(C)(C)C

>  <measured-value>
3

$$$$
>  <smiles-str>
CCCCCNC(=O)[C@H](Cc1ccc(OCC(=O)O)c(C(=O)OC)c1)NC(=O)[C@H](Cc1ccccc1)NC(=O)OC(C)(C)C

>  <measured-value>
3

$$$$
>  <smiles-str>
CCCCCNC(=O)[C@H](Cc1ccc(OCC(N)=O)c(C(=O)O)c1)NC(=O)[C@H](Cc1ccccc1)NC(=O)OC(C)(C)C

>  <measured-value>
0

$$$$

###

- test-target: Tyrosine-protein phosphatase non-receptor type 11 (Homo sapiens) (UniProt Q06124)
- Sequence (Q06124 whole entry): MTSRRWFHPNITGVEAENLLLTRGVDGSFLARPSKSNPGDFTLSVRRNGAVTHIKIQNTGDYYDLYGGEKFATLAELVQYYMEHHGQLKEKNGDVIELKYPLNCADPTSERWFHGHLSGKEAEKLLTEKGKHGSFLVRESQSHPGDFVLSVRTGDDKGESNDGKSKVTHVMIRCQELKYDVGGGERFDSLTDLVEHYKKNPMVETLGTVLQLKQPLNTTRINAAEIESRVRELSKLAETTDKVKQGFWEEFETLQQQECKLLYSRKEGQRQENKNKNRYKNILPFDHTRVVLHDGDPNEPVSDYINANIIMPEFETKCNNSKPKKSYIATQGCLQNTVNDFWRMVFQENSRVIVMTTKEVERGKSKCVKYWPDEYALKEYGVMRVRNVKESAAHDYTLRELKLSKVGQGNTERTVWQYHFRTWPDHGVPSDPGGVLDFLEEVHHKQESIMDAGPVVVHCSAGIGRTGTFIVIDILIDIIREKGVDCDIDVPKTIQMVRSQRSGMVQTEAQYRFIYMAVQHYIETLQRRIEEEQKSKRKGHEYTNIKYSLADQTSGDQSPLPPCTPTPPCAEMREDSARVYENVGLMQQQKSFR
- test-description: Percent inhibition against Tyrosine phosphatase SHP2 at 100 uM
Threshold check on inhibition: at or above 1% gives Y, strictly below gives N.

>  <compound>
CCCCCNC(=O)C(Cc1ccc(OCC#N)c(C(=O)O)c1)NC(=O)CCC(=O)O (stereo not drawn)

>  <category>
N

$$$$
>  <compound>
CCCCCNC(=O)C(Cc1ccc(OCCO)c(C(=O)O)c1)NC(=O)CCC(=O)O (stereo not drawn)

>  <category>
N

$$$$
>  <compound>
CCCCCNC(=O)C(Cc1ccc(OCC(=O)O)c(C(=O)O)c1)NC(=O)CCC(=O)O (stereo not drawn)

>  <category>
Y

$$$$
>  <compound>
CCCCCNC(=O)[C@H](Cc1ccc(OCC(=O)O)c(C(=O)NO)c1)NC(=O)[C@H](Cc1ccccc1)NC(=O)OC(C)(C)C

>  <category>
Y

$$$$
>  <compound>
CCCCCNC(=O)[C@H](Cc1ccc(OCC(=O)O)c(C(=O)O)c1)NC(=O)[C@H](Cc1ccccc1)NC(=O)OC(C)(C)C

>  <category>
Y

$$$$
>  <compound>
CCCCCNC(=O)C(Cc1ccc2c(c1)OCCOC2=O)NC(=O)CCC(=O)O (stereo not drawn)

>  <category>
N

$$$$

###

- test-target: Tyrosine-protein phosphatase non-receptor type 1 (Homo sapiens) (UniProt P18031)
- test-description: Percent inhibition against Protein-tyrosine phosphatase 1B at a 100 uM concentration

>  <compound>
CCCCCNC(=O)[C@H](Cc1ccc(OCC(=O)OC)c(C(=O)O)c1)NC(=O)[C@H](Cc1ccccc1)NC(=O)OC(C)(C)C

>  <inhibition [%]>
25

$$$$
>  <compound>
CCCCCNC(=O)[C@H](Cc1ccc(OCC(=O)O)c(C(=O)OC)c1)NC(=O)[C@H](Cc1ccccc1)NC(=O)OC(C)(C)C

>  <inhibition [%]>
4

$$$$
>  <compound>
CCCCCNC(=O)C(Cc1ccc(OCC(=O)O)c(C#N)c1)NC(=O)CCC(=O)O (stereo not drawn)

>  <inhibition [%]>
4

$$$$
>  <compound>
CCCCCNC(=O)[C@H](Cc1ccc(OCC(=O)O)c(-c2nn[nH]n2)c1)NC(=O)[C@H](Cc1ccccc1)NC(=O)OC(C)(C)C

>  <inhibition [%]>
97

$$$$
>  <compound>
CCCCCNC(=O)C(Cc1ccc(OCCO)c(C(=O)O)c1)NC(=O)CCC(=O)O (stereo not drawn)

>  <inhibition [%]>
4

$$$$
>  <compound>
CCCCCNC(=O)[C@H](Cc1ccc(OCC(=O)O)c(C(=O)O)c1)NC(=O)[C@H](Cc1ccccc1)NC(=O)OC(C)(C)C

>  <inhibition [%]>
97

$$$$
>  <compound>
CCCCCNC(=O)C(Cc1ccc2c(c1)OCCOC2=O)NC(=O)CCC(=O)O (stereo not drawn)

>  <inhibition [%]>
1

$$$$
>  <compound>
CCCCCNC(=O)C(Cc1ccc(OCC#N)c(C(=O)O)c1)NC(=O)CCC(=O)O (stereo not drawn)

>  <inhibition [%]>
3

$$$$

The measurements presented in this section are drawn from ChEMBL document CHEMBL1135929.
